Tested on: Escherichia coli TOP10
Experiment: shrunken log2 fold change of peptide-encoding DNA abundance (4.5 h post-induction vs induction); higher = less antimicrobial activity (less host growth inhibition)
Settings: time post-induction: 4.5 h; library: site-saturation at positions 5, 18, 19, 20
If the reported shrunken log2 fold change equals or exceeds -0.08, assign Y. If not, assign N.

Sample answers from the record:
>  <Record sequence>
RRIRIRPPRLPRPRPRPKMDPRP

>  <Assayed system>
Escherichia coli TOP10

>  <Class>
Y

$$$$
>  <Record sequence>
RRIRQRPPRLPRPRPRPDLFPRP

>  <Assayed system>
Escherichia coli TOP10

>  <Class>
Y

$$$$
>  <Record sequence>
RRIRDRPPRLPRPRPRPAWCPRP

>  <Assayed system>
Escherichia coli TOP10;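 also: peptides expressed intracellularly from a pBAD plasmid library in pooled LB shake-flask culture, induced with 0.3% L-arabinose, DNA abundance read by NGS, three biological replicates, DESeq2 with apeglm shrinkage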

>  <Class>
Y

$$$$

Ask | Please tell me: is the sequence `RRIRGRPPRLPRPRPRPFIGPRP` at or over -0.08 in terms of shrunken log2 fold change?
Reply | N

Ask | Reported shrunken log2 fold change reaches at least -0.08 for `RRIRNRPPRLPRPRPRPCWLPRP` ?
Reply | N

Ask | In plain terms: is recorded shrunken log2 fold change at least -0.08 for `RRIRHRPPRLPRPRPRPDCPPRP` ?
Reply | Y

Ask | Answer whether shrunken log2 fold change of `RRIRFRPPRLPRPRPRPTESPRP` is greater than or equal to -0.08.
Reply | N

Ask | Identify whether the reported shrunken log2 fold change of the following sequence is -0.08 or greater: `RRIRGRPPRLPRPRPRPAVSPRP`
Reply | Y
